Recorded folding stability dG for the following variants
B1: EEHEE_rd4_0003 (parent)
chain: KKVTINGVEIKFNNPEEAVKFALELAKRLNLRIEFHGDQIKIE

variants of: B1; test: folding stability dG (cDNA display proteolysis); higher = more stable; settings: PBS, room temperature

Sequence Change	Unit Abbreviation	folding stability dG
H36T	kcal/mol	2.7
D38T	kcal/mol	2.29
I33M	kcal/mol	1.92
K27P	kcal/mol	1.37
V3P	kcal/mol	2.06
K41S	kcal/mol	2.46
R28T	kcal/mol	2.2
A18I	kcal/mol	2.45
K20S	kcal/mol	2.24
R28Q	kcal/mol	2.21
